Listed here are compounds together with their documented max response.
test system: KB-3-1; assay: Cytotoxic Profiling of Annotated Libraries Using Quantitative High-Throughput Screening (AID 1296008); settings: Five cell lines viability, CellTiter-Glo ATP luminescence, 48-72 h; hits give low values; further: on the % scale 0 is the no-effect control and ±100 the full control effect; nearly all actives have a fitted effect of over 60% in size
Results filed as inconclusive are left out. Active and inactive are the calls of the source. The call rests on the fitted dose curve; in most records, active means well fitted inhibition curve with a large enough effect; inconclusive means small, poorly fitted or top-dose-only effect; inactive means flat fitted curve, though single readings scatter.

Solved entries:
{"columns": ["COMPOUND", "max response"],
 "data": [
  ["O=C(Oc1ccccc1)c1cccc(C(=O)Oc2ccccc2)c1", "-6.63% (inactive)"],
  ["C1N2CN3CN1CN(C2)C3", "-1.26% (inactive)"],
  ["Cc1cc(C(C)(C)C)c(O)c(C(C)(C)C)c1", "-9.85% (inactive)"],
  ["CN1CCCN(C(c2ccccc2)c2ccc(Cl)cc2)CC1 (stereo not drawn)", "0.505% (inactive)"],
  ["CCCCC(CC)COC(=O)c1ccccc1C(=O)O (stereo not drawn)", "-15.1% (inactive)"]
]}

With those in mind, consider the next compound.
Find the recorded max response belonging to `CN1CCC(Nc2ncc3ncnc(Nc4ccc(F)c(Cl)c4)c3n2)CC1` and report it.
-0.0832% (inactive)

----------
assay: Cell Viability - LYMP2-006 (AID 978); conditions: LYMP2-006 lymphoblastoid cell viability, qHTS; series mostly up to 92.2 µM;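 further: cells exposed to compound for 24 hours; nearly all actives have a fitted effect of over 60% in size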
Records with an inconclusive call do not appear. Calls of active or inactive are those of the source. The call rests on the fitted dose curve; in most records, active means well fitted cell-killing curve with a large enough effect; inconclusive means small, poorly fitted or top-dose-only effect; inactive means flat fitted curve, though single readings scatter.
Log the outcome using a class from active, inactive

Just curious, what result did `Cc1cc(C(C)(C)C)c(O)c(C(C)(C)C)c1` get here?
inactive

Record request — test call for `Nc1cccc2c(N)cccc12`
inactive

What classification did `CC(C)(C)c1ccc(O)c(O)c1` end up with in this test?
active

Would you mind telling me which call this test gave `CCCC(=O)c1cc(O)c(O)cc1O` ?
inactive

Outcome logged for `Oc1ccccc1` in this assay:
inactive

Please indicate how the test categorized `CC(C)(c1ccc(O)cc1)c1ccc(O)cc1` .
inactive

State the result this test recorded for `CC(C)C(C)(C)C(C)(C)C(C)(C)S` .
inactive

Per the records of this test, what outcome belongs to `O=C(NO)c1ccccc1` ?
inactive

GET /call?item= `COc1cc(C=O)ccc1O` returns the recorded outcome of this test.
inactive

Hello, I am checking results. What call was entered for `Nc1ccc(O)cc1` ?
active

Tell me the assay call for `Brc1ccccc1-c1ccccc1` please.
inactive

Called result for `CCCCCCCCCCCCCCCC[n+]1ccccc1`
active

----------
tested on: Tov112D; assay: Primary qHTS to identify gynecologic anti-cancer compounds using libraries of approved drugs and bioactive compounds (AID 1345084); conditions: Gynecologic cancer cell panel viability, ATPlite luminescence, 48 h; series mostly up to 57.5 µM; further: nearly all actives have a fitted effect of over 55% in size
Inconclusive results are not listed. Active and inactive are the calls of the source. The call rests on the fitted dose curve; in most records, active means well fitted cell-killing curve with a large enough effect; inconclusive means small, poorly fitted or top-dose-only effect, or effect the other way; inactive means flat fitted curve, though single readings scatter.
Reply using exactly one outcome from TRUE for active, FALSE for inactive

{"columns": ["COMPOUND", "CATEGORY"],
 "data": [
  ["CCN1C(=O)c2ccccc2C1Nc1ccc(OCCN2CCCCC2)cc1 (stereo not drawn)", "FALSE"],
  ["CC(C)OC(=O)c1cc2c(OCC(O)CNC(C)(C)C)cccc2[nH]1 (stereo not drawn)", "FALSE"]
]}

Outcome logged for `COCCOCC(OC)OC` in this assay:
FALSE

Identify the outcome logged in this assay for the compound shown: `CCS(=O)(=O)c1ccc(OC)c(C(=O)OC)c1`
FALSE

Name the outcome recorded for `CCCCOCCOC(=O)c1cccnc1` in the assay.
FALSE

# lookup: test call for `O=C(O)CCCC[P+](c1ccccc1)(c1ccccc1)c1ccccc1`
FALSE

Kindly provide the recorded test outcome for the following compound: `Cc1nn(-c2ccccc2)c(C)c1/C=N/N1CCN(Cc2ccccc2)CC1`
FALSE

Please let me know the test result on file for `O=C(c1cc(O)c(O)c(O)c1)c1ccc(O)c(O)c1O` .
FALSE

Field: outcome | Entry: `O=C(CCC1CCN(Cc2ccccc2)CC1)c1ccc2c(c1)NCCCC2`
FALSE

Outcome? `Cc1cc(O)c2c(O)c3c(O)cccc3cc2c1`
FALSE

----------
biological target: DNA repair nuclease/redox regulator APEX1 (Homo sapiens); experiment: qHTS Validation Assay for Inhibitors of the Human Apurinic/apyrimidinic Endonuclease 1 (APE1) (AID 1705;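 further: TAMRA fluorescence gain over two minutes as APE1 cuts a quenched THF abasic duplex; on the % scale 0 is the no-effect control and ±100 the full control effect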); conditions: purified APE1 endonuclease activity, fluorescence, titration; series mostly up to 57.1 µM
Records with an inconclusive call do not appear. The source made the active and inactive calls. Calls follow the shape of the dose curve; as a rule, active = well fitted inhibition curve with a large enough effect; inconclusive = small, poorly fitted or top-dose-only effect; inactive = flat fitted curve, though single readings scatter.
MEASUREMENT_TYPE: outcome

Please review the following examples before continuing.
{"columns": ["SMI", "outcome"],
 "data": [
  ["C[N+](C)(C)CCO", "inactive"],
  ["NC(N)=NCCCCN=C(N)N", "inactive"],
  ["COc1ccccc1N1CCN(CCN2C(=O)CC3(CCCC3)CC2=O)CC1", "inactive"],
  ["C[C@]12CCC(=O)C=C1CC[C@@H]1[C@@H]2[C@@H](O)C[C@@]2(C)[C@H]1CC[C@]2(O)C(=O)COC(=O)CCC(=O)O", "inactive"],
  ["Brc1ccc([C@H]2CN3CCSC3=N2)cc1", "inactive"]
]}

Switching to the query record.
Test system DNA repair nuclease/redox regulator APEX1 (Homo sapiens); read-out outcome; what value for `Cn1cnc2c(NCc3ccccc3)nc(NCCO)nc21` ?
inactive

----------
assay: qHTS of pediatric cancer cell lines to identify multiple opportunities for drug repurposing: Primary screen for BT-37 cells (AID 1347094); settings: BT-37 viability, CellTiter-Glo luminescence, 48 h; series mostly up to 57.3 µM;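 further: plate controls were DMSO for no effect and bortezomib for full effect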
Records with an inconclusive call do not appear. Active and inactive are the calls of the source. Calls follow the shape of the dose curve; as a rule, active = well fitted cell-killing curve with a large enough effect; inconclusive = small, poorly fitted or top-dose-only effect; inactive = flat fitted curve, though single readings scatter.

{"columns": ["SMI", "outcome"],
 "data": [
  ["COc1cc(OC)nc(O[C@H](C(=O)O)C(OC)(c2ccccc2)c2ccccc2)n1", "inactive"],
  ["CSCC[C@H](NC(=O)[C@H](Cc1c[nH]c2ccccc12)NC(=O)CCNC(=O)OC(C)(C)C)C(=O)N[C@@H](CC(=O)O)C(=O)N[C@@H](Cc1ccccc1)C(N)=O", "inactive"],
  ["CC(C)=CCC/C(C)=C/CC/C(C)=C/C(=O)OCC(=O)[C@@]1(O)CC[C@H]2[C@@H]3CCC4=CC(=O)C=C[C@]4(C)[C@H]3[C@@H](O)C[C@@]21C", "inactive"]
]}

----------
molecular target: Calcium and integrin-binding protein 1 (Homo sapiens); experiment: Primary qHTS for Identification of Calcium Integrin Binding Protein 1 (CIB1) Competitor (AID 1508620); conditions: CIB1-GST / FITC-alphaIIb peptide fluorescence polarization; series mostly up to 114 µM;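 further: GST tagged CIB1 binding a fluorescein labelled alphaIIb integrin peptide tracer; top concentration of the series differs between compounds; on the % scale 0 is the no-effect control and ±100 the full control effect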
Records with an inconclusive call do not appear. Activity calls are given as the source filed them. Calls follow the shape of the dose curve; as a rule, active = well fitted inhibition curve with a large enough effect; inconclusive = small, poorly fitted or top-dose-only effect; inactive = flat fitted curve, though single readings scatter.
Form entry, call: pick from true (1) = active, false (0) = inactive

{"columns": ["COMPOUND", "CATEGORY"],
 "data": [
  ["CCN(CC)CC(=O)Oc1ccc(NC(C)=O)cc1", "false (0)"]
]}

Hi, do you know how CCCCC(CC)COC(=O)c1ccccc1C(=O)O (stereo not drawn) came out in this test?
false (0)

What outcome does the record of this test show for `Nc1ccc2c(c1)CN1C(=O)c3ccccc3C1=N2` ?
false (0)

----------
tested on: CP185; assay: qHTS profiling for inhibitors of Plasmodium falciparum proliferation (AID 504749); further: nearly all actives have a fitted effect of over 60% in size; conditions: P. falciparum in erythrocytes, SYBR Green DNA, 72 h; series mostly up to 28.7 µM
Inconclusive results are not listed. Active and inactive are the calls of the source. Calls follow the shape of the dose curve; as a rule, active = well fitted inhibition curve with a large enough effect; inconclusive = small, poorly fitted or top-dose-only effect; inactive = flat fitted curve, though single readings scatter.
Bench note: report the call from active, inactive

# count of solved cases: 6
{"columns": ["COMPOUND", "EXPERIMENTAL_TARGET", "CATEGORY"],
 "data": [
  ["Nc1c2ccccc2nc2ccccc12", "CP185", "active"],
  ["CCCCCCCCCCCCCCCC[N+](C)(C)Cc1ccccc1", "CP185", "active"],
  ["CC(NCCC(c1ccccc1)c1ccccc1)c1ccccc1 (configuration not stated)", "CP185", "active"],
  ["O=S(=O)(O)c1ccc2nc(-c3ccccc3)[nH]c2c1", "CP185", "inactive"],
  ["O=C(Nc1ccc(Cl)cc1)Nc1ccc(Cl)c(Cl)c1", "CP185", "active"],
  ["Nc1ncnc2nc[nH]c12", "CP185", "inactive"]
]}

Recorded test call requested for `CCCCCCCCCCCCCCCC[n+]1ccccc1`
active

----------
tested on: Tov-21-G; assay: Primary qHTS to identify gynecologic anti-cancer compounds using libraries of approved drugs and bioactive compounds (AID 1345084); conditions: Gynecologic cancer cell panel viability, ATPlite luminescence, 48 h; series mostly up to 57.5 µM; further: nearly all actives have a fitted effect of over 55% in size
Inconclusive results are not listed. Active and inactive are the calls of the source. Calls come from the whole dose curve; as a rule, active = well fitted cell-killing curve with a large enough effect; inconclusive = small, poorly fitted or top-dose-only effect, or effect the other way; inactive = flat fitted curve, though single readings scatter.
One label from this list, please: active, inactive

The examples below pair each entry with its known result.
{"columns": ["COMPOUND", "EXPERIMENTAL_TARGET", "CATEGORY"],
 "data": [
  ["O=C(O)Cc1ccccc1Oc1ccc(Cl)cc1Cl", "Tov-21-G", "inactive"],
  ["CCN1CCN(c2cc(-c3ccc(F)cc3)c3c(n2)CCCCCC3)CC1", "Tov-21-G", "inactive"],
  ["O=C(O)C1CCC1", "Tov-21-G", "inactive"],
  ["O=C(O)[C@H](O)[C@@H](O)[C@H](O[C@@H]1O[C@H](CO)[C@H](O)[C@H](O)[C@H]1O)[C@H](O)CO", "Tov-21-G", "inactive"],
  ["CCCC(=O)Nc1ccc(O)c(C(C)=O)c1", "Tov-21-G", "inactive"]
]}

Which result was noted for this compound in the test: COc1ccccc1N1CCN(CC(O)COc2cc(OC)c(OC)c(OC)c2)CC1 (stereo not given)
inactive

Hi, sorry to bother you, what did the test record for `CC(=O)N(c1onc(C)c1C)S(=O)(=O)c1ccc(N)cc1` ?
inactive

Assay result, entry `Cc1ccc2c(Cl)cc(Cl)c(O)c2n1` — outcome?
inactive

What is the recorded call for this compound in the test? `CCCCCCCC(=O)[O-].CCCCCCCC(=O)[O-].[Zn+2]`
inactive

What call does the record list for `COc1c(C)c2c(c(O)c1C/C=C(\C)CCC(=O)OCCN1CCOCC1)C(=O)OC2` ?
active

Hey, what did the test say about `C=CCOc1cc(Cl)ccc1C(=O)NCCN(CC)CC` ?
inactive

Returns: the outcome recorded for `CC(C)OP(=O)(CP(=O)(OC(C)C)OC(C)C)OC(C)C` in this assay.
inactive

Short answer needed: outcome of this test for `C[N+](C)(CCOc1ccccc1)Cc1cccs1` ?
inactive

So what was the verdict on Nc1ccc(C(=O)OCC(O)CO)cc1 (stereo not given) in this test?
inactive

// param item: CCN(CC)C(=O)C1CN2CCc3cc(OC)c(OC)cc3C2CC1OC(C)=O (stereo not given) ; yields the recorded call
inactive

Could you check what this test reported for `CC(C)C(=O)Nc1cccc(C(F)(F)F)c1` ?
inactive

src = PubChem BioAssay (NCATS)
